Target: BCL2 G101V (Homo sapiens, UniProt P10415, G101V)
Assay: TR-FRET competitive binding assay, BCL2 G101V
Conditions: BCL2 G101V; Ki determined from IC50; read-out: TR_FRET EKI_Bcl2 G101V
Description: The relative binding potency of each compound was determined in a competitive binding assay using time resolved-fluorescence resonance energy transfer (TR-FRET). […] The degree of binding or corresponding compound inhibition can be quantified by the TR-FRET signal between the terbium donor and fluorescein acceptor. […] TR-FRET measurements were performed on a Biotek Synergy Neo plate reader. […] The TR-FRET signal was calculated as the emission-ratio at 520 nm over 495 nm. […]
pKi: −log10 of the molar value.
Give class 1 when the value for pKi is at least 9. Give class 0 when it is less.

**Query** Confirm if pKi reported for the compound Cc1c(N(C(=O)c2cc(-c3cc4c(cc3C(=O)N3Cc5ccccc5C[C@H]3CN3CCCC3)CN(C(=O)Cc3ccc(OCCN(C)C5CC5)cc3F)CC4)n(C)c2C)c2ccc(O)cc2)cc(C#N)n1C is 9 or above.
**Result** class 1

**Query** Confirm if pKi reported for the compound Cc1c(N(C(=O)c2cc(-c3cc4c(cc3C(=O)N3Cc5ccccc5C[C@H]3CN3CCCCC3)CN(C(=O)Cc3ccc(Cl)cc3F)CC4)n(C)c2C)c2ccc(O)cc2)cc(C#N)n1C is 9 or above.
**Result** class 1

**Query** Confirm if pKi reported for the compound Cc1c(N(C(=O)c2cc(-c3cc4c(cc3C(=O)N3Cc5ccccc5C[C@H]3CN3CCCCC3)CN(C(=O)Cc3ccc(OCC(C)N5CCOCC5)cc3)CC4)n(C)c2C)c2ccc(O)cc2)cc(C#N)n1C (single isomer, unassigned) [Example 127] is 9 or above.
**Result** class 1

**Query** Confirm if pKi reported for the compound Cc1c(C(=O)N(c2ccccc2)c2cnn(C)c2)cc(-c2cc3c(cc2C(=O)N2Cc4ccccc4C[C@H]2C)CN(C(=O)Cc2cccc(C4CCN(C)CC4)c2)CC3)n1C is 9 or above.
**Result** class 0

**Query** Confirm if pKi reported for the compound Cc1c(N(C(=O)c2cc(-c3cc4c(cc3C(=O)N3Cc5ccccc5C[C@H]3CN3CCCCC3)CN(C(=O)Cc3ccc(OCCN5CCOCC5)cc3F)CC4)n(C)c2C)c2ccc(O)cc2)cc(C#N)n1C [Example 43] is 9 or above.
**Result** class 1

**Query** Confirm if pKi reported for the compound Cc1c(N(C(=O)c2cc(-c3cc4c(cc3C(=O)N3Cc5ccccc5C[C@H]3CN3CCCC[C@@H]3C)CN(C(=O)Cc3ccc(OCCN5CCOCC5)cc3F)CC4)n(C)c2C)c2ccc(O)cc2)cc(C#N)n1C is 9 or above.
**Result** class 1

###

target: BCLXL WT (Homo sapiens (Human), UniProt Q07817); assay: TR-FRET competitive binding assay, BCLXL WT; details: ratio Ki BCLxL / Ki BCL2 WT
Sequence (Q07817 other isoform, or with tags, fused parts or gaps): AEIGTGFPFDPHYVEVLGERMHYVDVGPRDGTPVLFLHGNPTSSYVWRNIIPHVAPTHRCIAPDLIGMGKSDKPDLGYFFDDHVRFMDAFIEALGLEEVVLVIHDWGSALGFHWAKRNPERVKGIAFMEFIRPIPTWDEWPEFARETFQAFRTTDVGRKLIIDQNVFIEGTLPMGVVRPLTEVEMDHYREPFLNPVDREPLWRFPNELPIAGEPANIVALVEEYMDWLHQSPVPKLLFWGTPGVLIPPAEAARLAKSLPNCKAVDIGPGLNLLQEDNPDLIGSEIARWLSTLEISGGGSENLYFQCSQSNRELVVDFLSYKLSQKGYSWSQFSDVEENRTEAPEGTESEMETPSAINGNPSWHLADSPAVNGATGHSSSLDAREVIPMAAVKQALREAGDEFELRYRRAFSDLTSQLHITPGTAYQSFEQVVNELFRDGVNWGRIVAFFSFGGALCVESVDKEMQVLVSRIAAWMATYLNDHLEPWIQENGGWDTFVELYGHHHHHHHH
Give condition met when the value for TR_FRET EKI BCLxL/WT selectivty ratio is at least 60. Give condition not met when it is less.

**Query** Confirm if TR_FRET EKI BCLxL/WT selectivty ratio reported for the compound COC[C@@H]1Cc2ccccc2CN1C(=O)c1cc2c(cc1-c1cc(C(=O)N(c3ccc(O)cc3)c3cc(C#N)n(C)c3C)c(C)n1C)CCN(C(=O)Cc1ccc(OCCC3CCOCC3)cc1F)C2 [Example 52] is 60 or above.
**Result** condition not met

**Query** Confirm if TR_FRET EKI BCLxL/WT selectivty ratio reported for the compound Cc1c(N(C(=O)c2cc(-c3cc4c(cc3C(=O)N3Cc5ccccc5C[C@H]3C)CN(C(=O)Cc3ccc(OCCN5CCOCC5)cc3)CC4)n(C)c2C)c2ccc(F)cc2)cc(C#N)n1C [Example 185] is 60 or above.
**Result** condition met

**Query** Confirm if TR_FRET EKI BCLxL/WT selectivty ratio reported for the compound Cc1c(N(C(=O)c2cc(-c3cc4c(cc3C(=O)N3Cc5ccccc5C[C@H]3C)CN(C(=O)Cc3ccc(OCCN5CCO[C@H](C)C5)cc3)CC4)n(C)c2C)c2ccc(O)cc2)cc(C#N)n1C [Example 56] is 60 or above.
**Result** condition not met

**Query** Confirm if TR_FRET EKI BCLxL/WT selectivty ratio reported for the compound Cc1c(N(C(=O)c2cc(-c3cc4c(cc3C(=O)N3Cc5ccccc5C[C@H]3CN3CCCCC3)CN(C(=O)Cc3ccc(OCCN5C[C@@H](C)O[C@@H](C)C5)cc3)CC4)n(C)c2C)c2ccc(O)cc2)cc(C#N)n1C [Example 98] is 60 or above.
**Result** condition met

**Query** Confirm if TR_FRET EKI BCLxL/WT selectivty ratio reported for the compound Cc1c(N(C(=O)c2cc(-c3cc4c(cc3C(=O)N3Cc5ccccc5C[C@H]3CN3CCCC3)CN(C(=O)Cc3c(F)cc(OCCN5CCOCC5)cc3F)CC4)n(C)c2C)c2ccc(O)cc2)cc(C#N)n1C [Example 171] is 60 or above.
**Result** condition met

**Query** Confirm if TR_FRET EKI BCLxL/WT selectivty ratio reported for the compound Cc1c(N(C(=O)c2cc(-c3cc4c(cc3C(=O)N3Cc5ccccc5C[C@H]3CN3CCCCC3)CN(C(=O)Cc3ccc(OCCN5CCOCC5)cc3F)CC4)n(C)c2C)c2ccccc2)cc(C#N)n1C [Example 92] is 60 or above.
**Result** condition met

**Query** Confirm if TR_FRET EKI BCLxL/WT selectivty ratio reported for the compound Cc1c(C(=O)N(c2ccccc2)c2cnn(C(F)F)c2)cc(-c2cc3c(cc2C(=O)N2Cc4ccccc4C[C@H]2CN2CC4(CCC4)C2)CN(C(=O)Cc2ccc(OCCN4CCOCC4)cc2)CC3)n1C [Example 206] is 60 or above.
**Result** condition met

**Query** Confirm if TR_FRET EKI BCLxL/WT selectivty ratio reported for the compound Cc1c(N(C(=O)c2cc(-c3cc4c(cc3C(=O)N3Cc5ccccc5C[C@H]3CN3CCCCC3)CN(C(=O)Cc3ccc(OCC(C)N5CCOCC5)cc3F)CC4)n(C)c2C)c2ccc(O)cc2)cc(C#N)n1C (single isomer, unassigned) [Example 141] is 60 or above.
**Result** condition not met

**Query** Confirm if TR_FRET EKI BCLxL/WT selectivty ratio reported for the compound Cc1c(C(=O)N(c2ccccc2)c2cnc3c(cnn3C)c2)cc(-c2cc3c(cc2C(=O)N2Cc4ccccc4C[C@H]2C)CN(C(=O)Cc2ccc(OCCN4CCOCC4)cc2)CC3)n1C [Example 195] is 60 or above.
**Result** condition met

**Query** Confirm if TR_FRET EKI BCLxL/WT selectivty ratio reported for the compound Cc1c(C(=O)N(c2ccc(O)cc2)c2cc(C#N)n(C(F)F)c2C)cc(-c2cc3c(cc2C(=O)N2Cc4ccccc4C[C@H]2C)CN(C(=O)Cc2ccc(OCCN4CCOCC4)cc2F)CC3)n1C [Example 94] is 60 or above.
**Result** condition not met

###

molecular target: UniProtKB Q07817
Outcome Measure: Ki (nM)
Could you give me the number in nM? Just the number is fine.

**Query** State the recorded Ki for this entry: Cc1c(N(C(=O)c2cc(-c3cc4c(cc3C(=O)N3Cc5ccccc5C[C@H]3C)CN(C(=O)Cc3ccc(OCCN5CCOCC5)cc3)CC4)n(C)c2C)c2ccccc2)cc(C#N)n1C [Example 236]
**Result** 4.15

**Query** State the recorded Ki for this entry: Cc1c(N(C(=O)c2cc(-c3cc4c(cc3C(=O)N3Cc5ccccc5C[C@H]3C)CN(S(=O)(=O)Cc3ccccc3)CC4)n(C)c2C)c2ccc(O)cc2)cc(C#N)n1C [Example 14]
**Result** 53

**Query** State the recorded Ki for this entry: Cc1c(C(=O)N(c2ccccc2)c2cnn(C)c2)cc(-c2cc3c(cc2C(=O)N2Cc4ccccc4C[C@H]2C)CN(C(=O)Cc2cccc(N4CC5(CN(C)C5)C4)c2)CC3)n1C [Example 217]
**Result** 0.6

**Query** State the recorded Ki for this entry: Cc1c(N(C(=O)c2cc(-c3cc4c(cc3C(=O)N3Cc5ccccc5C[C@H]3CN3CCCCC3)CN(C(=O)Cc3ccc(OCCN5CCOCC5(C)C)cc3)CC4)n(C)c2C)c2ccc(O)cc2)cc(C#N)n1C [Example 148]
**Result** 1.5

**Query** State the recorded Ki for this entry: COCC(=O)N1CCc2cc(-c3cc(C(=O)N(c4ccccc4)c4cc(C#N)n(C)c4C)c(C)n3C)c(C(=O)N3Cc4ccccc4C[C@H]3CN3CCCCC3)cc2C1 [Example 189]
**Result** 33.4

**Query** State the recorded Ki for this entry: Cc1c(N(C(=O)c2cc(-c3cc4c(cc3C(=O)N3Cc5ccccc5C[C@H]3CN3C[C@H]5C[C@H]5C3)CN(C(=O)Cc3ccc(OCCN5CCOCC5)cc3F)CC4)n(C)c2C)c2ccc(O)cc2)cc(C#N)n1C [Example 120]
**Result** 5.3

**Query** State the recorded Ki for this entry: Cc1c(N(C(=O)c2cc(-c3cc4c(cc3C(=O)N3Cc5ccccc5C[C@H]3C)CN(C(=O)Cc3ccc(F)cc3F)CC4)n(C)c2C)c2ccc(O)cc2)cc(C#N)n1C [Example 11]
**Result** 4.8

**Query** State the recorded Ki for this entry: COCCn1c(C#N)cc(N(C(=O)c2cc(-c3cc4c(cc3C(=O)N3Cc5ccccc5C[C@H]3C)CN(C(=O)Cc3ccc(OCCN5CCOCC5)cc3)CC4)n(C)c2C)c2ccc(O)cc2)c1C [Example 68]
**Result** 1.6

**Query** State the recorded Ki for this entry: COc1ncc(N(C(=O)c2cc(-c3cc4c(cc3C(=O)N3Cc5ccccc5C[C@H]3CN3CCCCC3)CN(C(=O)Cc3ccc(OCCN5CCOCC5)cc3F)CC4)n(C)c2C)c2ccc(O)cc2)cc1F [Example 164]
**Result** 9.3

**Query** State the recorded Ki for this entry: Cc1c(N(C(=O)c2cc(-c3cc4c(cc3C(=O)N3Cc5ccccc5C[C@H]3C)CN(C(=O)Cc3ccc(OCCN5CCOCC5)cc3)CC4)n(C)c2C)c2ccccc2)cnn1C(F)F [Example 215]
**Result** 16
